compounds and their reported viability at 28.5 h, 10 µM
Assay overview: in vitro
Setup conditions: human, hela cells, % viability
The reply should contain only the number, in %.

Here are 3 compounds together with their reported answers.
>  <Compound>
CCOC(=O)C(C)NC(=O)c1cc2ccc(F)cc2[nH]1 (stereo not shown)

>  <viability at 28.5 h, 10 µM [%]>
107

$$$$
>  <Compound>
CCCS(=O)(=O)Nc1nccnc1N1CCN(c2ccc3c(c2)OCO3)CC1

>  <viability at 28.5 h, 10 µM [%]>
93.6

$$$$
>  <Compound>
COC(=O)NC(O)C(=O)c1ccco1 (stereo not shown)

>  <viability at 28.5 h, 10 µM [%]>
94.7

$$$$

**Q:** Which viability at 28.5 h, 10 µM value is on record for "O=C1C=C(O)CC(CCc2ccc(F)cc2)(CCc2ccc(F)cc2)O1" ?
**A:** 92.7

**Q:** Fill blank: measured viability at 28.5 h, 10 µM of the compound "Cc1nc2cc(C(=O)NCC(C)(C)N3CCCCC3)ccc2n1C" is ____.
**A:** 86.4

**Q:** Could you tell me which viability at 28.5 h, 10 µM is on file for "O=[N+]([O-])c1cccc(-c2cc(NCCc3ccccn3)ncn2)c1" ?
**A:** 96.7
